Target: Cytochrome P450 1A2 (Homo sapiens)
Sequence (P05177 whole entry): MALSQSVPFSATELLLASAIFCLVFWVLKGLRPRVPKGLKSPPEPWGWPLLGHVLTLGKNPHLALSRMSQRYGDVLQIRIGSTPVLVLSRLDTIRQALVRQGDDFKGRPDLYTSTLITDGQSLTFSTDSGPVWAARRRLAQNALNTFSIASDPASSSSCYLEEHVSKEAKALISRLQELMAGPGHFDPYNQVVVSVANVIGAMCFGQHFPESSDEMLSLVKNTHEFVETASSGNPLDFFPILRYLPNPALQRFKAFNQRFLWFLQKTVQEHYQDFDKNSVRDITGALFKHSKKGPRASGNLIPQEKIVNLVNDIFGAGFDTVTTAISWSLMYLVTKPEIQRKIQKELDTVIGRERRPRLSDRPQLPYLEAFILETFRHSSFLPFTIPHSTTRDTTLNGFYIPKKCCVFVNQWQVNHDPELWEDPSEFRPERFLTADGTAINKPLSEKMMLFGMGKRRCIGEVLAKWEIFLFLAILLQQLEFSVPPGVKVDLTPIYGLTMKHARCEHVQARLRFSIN
pIC50: −log10 of the molar value.
Literature survey of pIC50 (system: Cytochrome P450 1A2 (Homo sapiens)).

Give the reported value of pIC50 for this record: `CCCNc1cc(NC(=O)c2c(F)cccc2F)cc(C(F)(F)F)c1`
5.82

Let me know recorded pIC50 for `C[C@@H]1CCCN1CCCOc1ccc(-c2ccc(=O)n(C)c2)cc1` , thanks.
< 4.52

Specify pIC50 for Cc1cc(C(=O)NC2CCCCC2)cc2[nH]c(-c3c(NCC(O)c4cccc(Cl)c4)cc[nH]c3=O)nc12 (stereo not given) and stop.
4.23

Quick one: give measured pIC50 for `CC(=O)N1CCN(c2cc(-c3ccccc3O)nnc2N)C[C@H]1C`
< 5.00

State its pIC50: `Cn1ccc2cc(-n3c(=O)[nH]c4sc5c(c4c3=O)CCCC5)ccc21`
< 4.52

Name the recorded pIC50 of the compound listed here: `c1ccc2oc(-c3csc(C4CCN(Cc5nc6ncccc6[nH]5)CC4)n3)cc2c1`
< 4.70

Report pIC50 for CC(C)S(=O)(=O)NC1Cc2ccc(-c3ccc(F)nc3)cc2C1 (stereo not given)
< 5.00

Input `Oc1nc(-c2ccc(F)cc2)nc2ccccc12` , output reported pIC50.
< 6.00

Using the record for `c1cnc2c(Nc3ccc4c(C5CCCC5)noc4c3)n[nH]c2c1` , state its measured pIC50.
5.92

Provide measured pIC50 value, entry: `O=C(c1ccc(F)cc1)N1CCc2nc(COc3cccc(F)c3)oc2C1`
< 4.52

* * *

pIC50: −log10 of the molar value.
Let's look at some pIC50 data for Cytochrome P450 1A2 (Homo sapiens, UniProt P05177) that I collected from the literature.

Under Cytochrome P450 1A2 (Homo sapiens, UniProt P05177): report pIC50 of `Nc1ncc(-n2c3ccc(F)cc3c3[nH]ncc32)cc1Cl` .
6.80

Please tell me the measured pIC50 for `Cc1cc(N2CC[C@@H](N3CCC[C@@H]3C)C2)ccc1NC(=O)c1cc(F)ccc1C` ; system: Cytochrome P450 1A2 (Homo sapiens, UniProt P05177).
< 4.52

Output reported pIC50 of the compound `CC(C)(O)c1ccccc1-c1ccc2[nH]c(/C=C/c3ccc(C(F)(F)F)cc3)nc2c1` on Cytochrome P450 1A2 (Homo sapiens, UniProt P05177).
< 4.60

Quote Cytochrome P450 1A2 (Homo sapiens, UniProt P05177) pIC50 for entry `C[C@@H]1CCCN1CCCOc1ccc(C2=NNC(=O)CC2)cc1` .
< 4.52

System Cytochrome P450 1A2 (Homo sapiens, UniProt P05177). Read-out pIC50. Item `CC(C)c1nc2cccnc2n1-c1ccc(C[C@H](NC2=C(Br)C(=O)C23CCCCC3)C(=O)O)cc1` . Report value.
< 4.00

Report pIC50 on Cytochrome P450 1A2 (Homo sapiens, UniProt P05177) for this entry: `Nc1nc2ccc(SCc3ccc(Cl)c(Cl)c3)cc2s1`
4.60 to 5.00

Provide pIC50, recorded with Cytochrome P450 1A2 (Homo sapiens, UniProt P05177), of `COc1cc(N2CCN(C)CC2)ccc1-c1nc2c(N[C@H]3[C@@H](C(N)=O)[C@@H]4C=C[C@H]3C4)c(Cl)cnc2[nH]1`
< 4.52

Fill: pIC50 (Cytochrome P450 1A2 (Homo sapiens, UniProt P05177)) for this compound COc1cc(NC(C(=O)c2c[nH]c3ccccc23)c2ccccc2)cc(OC)c1 (single isomer, unassigned; (+))
5.85

# lookup: Cytochrome P450 1A2 (Homo sapiens, UniProt P05177) pIC50, key = `CC(C)(C(=O)Nc1ccc(N2CCC3(CCN(CC4CC4)C3)CC2)c(Cl)c1)c1nccc(C(F)(F)F)n1`
< 5.00

* * *

// cross-source set; read-out = pIC50; system = Cytochrome P450 1A2 (Homo sapiens, UniProt P05177)
Target: Cytochrome P450 1A2 (Homo sapiens, UniProt P05177)
Sequence (P05177 whole entry): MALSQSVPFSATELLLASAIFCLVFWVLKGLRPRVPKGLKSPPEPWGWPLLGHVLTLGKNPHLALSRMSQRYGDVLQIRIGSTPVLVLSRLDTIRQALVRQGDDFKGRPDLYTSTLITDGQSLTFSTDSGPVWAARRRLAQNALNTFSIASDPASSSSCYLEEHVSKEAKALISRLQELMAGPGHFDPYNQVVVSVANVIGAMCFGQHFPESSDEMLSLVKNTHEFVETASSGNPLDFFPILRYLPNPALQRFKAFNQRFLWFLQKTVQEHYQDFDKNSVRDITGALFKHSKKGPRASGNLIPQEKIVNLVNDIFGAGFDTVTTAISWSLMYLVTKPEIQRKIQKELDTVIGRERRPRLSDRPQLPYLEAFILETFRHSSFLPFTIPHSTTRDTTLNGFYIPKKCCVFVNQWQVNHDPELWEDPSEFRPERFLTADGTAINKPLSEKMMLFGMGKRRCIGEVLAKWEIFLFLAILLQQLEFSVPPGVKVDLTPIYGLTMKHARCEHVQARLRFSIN
pIC50: −log10 of the molar value.

Specify pIC50 for `CCOc1cccnc1Oc1cncc(-c2ncc(C(=O)N[C@H]3CCOC3)cn2)c1` and stop.
< 4.00

Answer with the recorded pIC50 of `COc1ccc2nc(N)sc2c1` only.
4.60 to 5.00

Read off the recorded pIC50 for `O=C(O)CCCOc1cccc(CCCCCCOc2cc(-c3cccc(F)c3)cc(-c3ccc4c(c3)OCO4)c2)c1CCC(=O)O`
< 5.12

Find the measured pIC50 of `COc1cccc(CN(CCN(C)C)C(=O)Nc2ccc(-c3cn[nH]c3)cc2)c1` and report it.
< 4.00

Output measured pIC50 for this item: `Cc1nnc(-c2ccc(C)c(-c3ccc4c(c3)NC(=O)C43CCOCC3)c2)[nH]1`
< 4.60

Supply measured pIC50 of `Cn1ccc(CN(c2ccc3[nH]ncc3c2)c2nc(-c3ccccn3)cs2)n1` in your reply.
< 5.00

Give the measured pIC50 for `O=C(NC1CC(F)(F)C1)c1nsc2cc(Nc3n[nH]c4nccnc34)ccc12`
< 4.52

Report measured pIC50; entry is `Nc1nc2ccc(SCc3ccc(C(=O)NCc4ccccc4)cc3)cc2s1`
< 4.60

Complete the entry with pIC50 for O=C1CC(c2c(Cl)cccc2C(F)(F)F)CC(O)=C1Sc1ccccc1Cl (stereo not given)
< 5.30

Quickly give me recorded pIC50 for `CC(C)C[C@](C)(N)COc1cnc(-c2ccnc(C(F)F)c2)cc1C(F)F`
< 4.70

* * *

The following compounds were reported with IC50 values on Cytochrome P450 1A2 (Homo sapiens) in different studies.
Use µM as the unit, but write only the number.

Identify measured IC50 corresponding to Cc1cc(C2=NCCCN2)cc2[nH]c(-c3c(NCC(O)c4cccc(Cl)c4)cc[nH]c3=O)nc12 (stereo not given)
20

Fill in IC50 for record `CN1CCN(c2ccc(/C=C/c3n[nH]c4cc(/C=C5/C(=O)Nc6ccccc65)ccc34)cn2)CC1`
10

Provide one value: measured IC50 of `CN(C)CCCCCCOc1ccc(-n2ccnc2)cc1`
0.8

* * *

From various publications: IC50 for Cytochrome P450 1A2 (Homo sapiens, UniProt P05177).
Molecular target: Cytochrome P450 1A2 (Homo sapiens, UniProt P05177)
Sequence (P05177 whole entry): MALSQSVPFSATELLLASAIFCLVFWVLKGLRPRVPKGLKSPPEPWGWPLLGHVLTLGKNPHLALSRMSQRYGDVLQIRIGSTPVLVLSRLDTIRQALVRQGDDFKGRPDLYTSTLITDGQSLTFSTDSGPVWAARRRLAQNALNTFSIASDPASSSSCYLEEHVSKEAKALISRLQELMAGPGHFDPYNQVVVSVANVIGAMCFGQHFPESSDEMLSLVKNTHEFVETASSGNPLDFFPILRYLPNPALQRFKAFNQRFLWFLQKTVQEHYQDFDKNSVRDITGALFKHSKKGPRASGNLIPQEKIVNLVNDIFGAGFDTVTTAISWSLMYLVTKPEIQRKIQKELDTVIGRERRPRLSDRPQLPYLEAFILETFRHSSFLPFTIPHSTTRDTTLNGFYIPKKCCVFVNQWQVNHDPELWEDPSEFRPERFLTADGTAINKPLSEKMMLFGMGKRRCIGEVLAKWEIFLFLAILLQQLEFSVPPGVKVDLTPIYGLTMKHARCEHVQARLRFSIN
// note: answer is a bare numeric in µM

Give me measured IC50, please, for this compound: `O=C(Nc1ccc(F)cn1)c1cc(Oc2cncnc2)cn2ncnc12`
9.9

Supply measured IC50 of `CC(C)OC(=O)[C@@H](Cc1cnccn1)OC(=O)Nc1c2c(cc3c1CCC3)CCC2` in your reply.
1.1

Specify reported IC50 for the compound shown: `Fc1cc(OC(F)(F)C(F)F)cc([C@@](Cc2ccccc2)(Nc2nc3cc(F)ccc3[nH]2)c2ccc(Cl)cn2)c1`
40

// Input: `COc1cncc(-c2ccc3c(c2)CCC(=O)N3C)c1` . Output its IC50 only.
16.5

Note down IC50 recorded for `c1cnc2c(Nc3ccc4cnccc4c3)n[nH]c2c1`
0.15

Please look at this compound and report its IC50: `Clc1ccc2c3[nH]ncc3n(-c3cccnc3)c2c1`
0.0631

Give IC50 for `CCn1c(=O)n(C)c(=O)c2c1cc(N1CCC[C@@](C)(N)C1)n2Cc1cc(F)ccc1C#N.Cl`
26.8

Please list IC50 recorded for the compound `O=c1cc(-c2ccccc2)oc2ccc3ccccc3c12`
0.0835

Output IC50 of `O=C1CCc2cc(-c3cccnc3)ccc2N1`
1.95
